Test system: RARb:RXRa (NR concentration 270 nM, RXRa partner concentration 90 nM)
Test protocol: PBM binding z-score (relative to random genomic background probes); higher = stronger binding; sequences stand for … in GC…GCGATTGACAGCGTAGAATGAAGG
Quick rule for you: PBM binding z-score at 4 or higher means t, lower means f.

Example results:
{"columns": ["Chain sequence", "Assay system", "Class label"],
 "data": [
  ["CCTTACGGGTCAAGGTTATAGCCCGGGTGGTACG", "RARb:RXRa (NR concentration 270 nM, RXRa partner concentration 90 nM)", "t"],
  ["CCTACTGGGCCAAAGAGGTCATTGATGCCGATAA", "RARb:RXRa (NR concentration 270 nM, RXRa partner concentration 90 nM)", "f"],
  ["CCTAGTTGGTCAAGGTCACACCCGCTATAGGTAC", "RARb:RXRa (NR concentration 270 nM, RXRa partner concentration 90 nM)", "t"],
  ["TGAATGAGGTTAAATATCAGGGAACGTGGCGTCG", "RARb:RXRa (NR concentration 270 nM, RXRa partner concentration 90 nM)", "f"]
]}

Exercise: Could you verify whether the entry AGAATGAGGTCACCAAAGATCAGGGAAACGCTTG shows PBM binding z-score of no less than 4?
Solution: t

Exercise: Record AATACAGGGTAACTAGGCCAGAGTAGGTACGAAT ; criterion: PBM binding z-score no lower than 4. Met?
Solution: f

Exercise: Can CGTCAAAGATCAAGGTAACGTAACAGAAAGCAGC be said to have PBM binding z-score at or above 4?
Solution: f

Exercise: Given the entry CTATGTAGGTTAGGGGGGTCATTCAGTTTGAAAG , answer whether its PBM binding z-score meets or surpasses 4.
Solution: t

Exercise: Hi, just wondering whether CAAACTAGTTCAAGAGGTCAAAGTCCGCTTCCCG shows PBM binding z-score of 4 or higher.
Solution: t

Exercise: Form field: PBM binding z-score at least 4? Entry: TACCCTAGGTCATTCAGGGGCCAGTATAGAAAGC
Solution: t
